System: ATP;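 further: ATP exposure 15 min at 22 °C before imaging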
Test: switch fluorescence ratio, 500 uM ATP over buffer (Cy3 cluster intensity, sum of 5 cycles each) (fold (ratio)); higher = stronger signal-on switching upon ATP binding; sequences stand for … in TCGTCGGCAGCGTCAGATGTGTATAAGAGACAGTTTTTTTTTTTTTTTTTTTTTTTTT…TC
Conditions: aptamer strand: ATP DNA aptamer (quencher-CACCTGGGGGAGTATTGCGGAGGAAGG + anchor), 100 nM annealed; ATP concentration: 500 uM
Below, each entry is listed with its recorded switch fluorescence ratio.

[
  {
    "Seq": "GGAATAGAGT",
    "switch fluorescence ratio": 1.02
  },
  {
    "Seq": "TGGGGGATTT",
    "switch fluorescence ratio": 1.27
  },
  {
    "Seq": "AGTAAGGGAG",
    "switch fluorescence ratio": 1.01
  },
  {
    "Seq": "GTTTAAAGTG",
    "switch fluorescence ratio": 1
  },
  {
    "Seq": "TTGTATAGGA",
    "switch fluorescence ratio": 0.998
  },
  {
    "Seq": "TGGTGAAAGA",
    "switch fluorescence ratio": 1.01
  },
  {
    "Seq": "GGGTCGATTT",
    "switch fluorescence ratio": 0.999
  },
  {
    "Seq": "TCGGGGAGTT",
    "switch fluorescence ratio": 0.982
  }
]
